Cited source for all entries: paper PMC4583267

Answer each item with its documented IC50.
Subject Of Test: α-glucosidase from baker's yeast (Saccharomyces cerevisiae, UniProt P53341)
Construct: purchased
Sequence (P53341 whole entry): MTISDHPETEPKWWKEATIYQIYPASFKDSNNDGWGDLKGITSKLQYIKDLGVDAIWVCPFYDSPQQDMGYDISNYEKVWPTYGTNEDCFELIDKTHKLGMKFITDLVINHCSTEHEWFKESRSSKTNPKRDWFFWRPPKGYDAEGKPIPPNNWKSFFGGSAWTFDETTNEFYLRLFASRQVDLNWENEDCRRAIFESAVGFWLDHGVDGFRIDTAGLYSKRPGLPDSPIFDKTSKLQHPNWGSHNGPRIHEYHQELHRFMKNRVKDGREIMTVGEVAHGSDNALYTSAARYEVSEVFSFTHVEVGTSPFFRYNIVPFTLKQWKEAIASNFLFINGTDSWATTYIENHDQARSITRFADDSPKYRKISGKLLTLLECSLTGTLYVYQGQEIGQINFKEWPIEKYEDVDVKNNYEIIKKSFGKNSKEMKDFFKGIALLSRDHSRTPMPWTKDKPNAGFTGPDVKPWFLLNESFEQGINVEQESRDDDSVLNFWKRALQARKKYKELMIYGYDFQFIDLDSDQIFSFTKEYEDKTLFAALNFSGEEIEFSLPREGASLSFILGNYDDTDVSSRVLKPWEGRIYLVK
Assay Summary: biochemical
Recorded Conditions: Table 1; read-out: Observed pIC50 (converted)
Answers are plain numbers, in nM.

A selection of reference data follows.
[
  {
    "Compound": "C[C@@H]1CC[C@]2(C(=O)Nc3ccccc3F)CC[C@]3(C)C(=CCC4[C@@]5(C)CC[C@H](O)C(C)(C)C5CC[C@]43C)C2[C@H]1C (stereo partly drawn)",
    "IC50 / nM": 1510
  },
  {
    "Compound": "C[C@@H]1CC[C@]2(C(=O)Nc3ccc(F)cc3)CC[C@]3(C)C(=CCC4[C@@]5(C)CC[C@H](O)C(C)(C)C5CC[C@]43C)C2[C@H]1C (stereo partly drawn)",
    "IC50 / nM": 1670
  },
  {
    "Compound": "C[C@@H]1CC[C@]2(C(=O)Nc3ccc(Br)cc3)CC[C@]3(C)C(=CCC4[C@@]5(C)CC[C@H](O)C(C)(C)C5CC[C@]43C)C2[C@H]1C (stereo partly drawn)",
    "IC50 / nM": 1280
  }
]

Dear colleague, could you send me IC50 for each of the items below? Thanks.
1. C[C@@H]1CC[C@]2(C(=O)Nc3ccccc3Cl)CC[C@]3(C)C(=CCC4[C@@]5(C)CC[C@H](O)C(C)(C)C5CC[C@]43C)C2[C@H]1C (stereo partly drawn)
2. COc1ccc(NC(=O)[C@]23CC[C@@H](C)[C@H](C)C2C2=CCC4[C@@]5(C)CC[C@H](OC(C)=O)C(C)(C)C5CC[C@@]4(C)[C@]2(C)CC3)cc1 (stereo partly drawn) [Analogue 10a]
3. C[C@@H]1CC[C@]2(C(=O)Nc3ccc(Cl)cc3)CC[C@]3(C)C(=CCC4[C@@]5(C)CC[C@H](O)C(C)(C)C5CC[C@]43C)C2[C@H]1C (stereo partly drawn)

Output:
[1310, 2010, 1270]

---

Subject Of Test: α-glucosidase from baker's yeast (Saccharomyces cerevisiae)
Construct: purchased
Assay Summary: biochemical
Recorded Conditions: Table 1; read-out: Observed pIC50 (converted)
Readout Kind: IC50 (µM)
Answers are plain numbers, in µM.

[
  {
    "Compound": "C[C@@H]1CC[C@]2(C(=O)Nc3ccccc3Br)CC[C@]3(C)C(=CCC4[C@@]5(C)CC[C@H](O)C(C)(C)C5CC[C@]43C)C2[C@H]1C (stereo partly drawn) [Analogue 6b]",
    "IC50 (µM)": 2.56
  },
  {
    "Compound": "COc1ccc(NC(=O)[C@]23CC[C@@H](C)[C@H](C)C2C2=CCC4[C@@]5(C)CC[C@H](O)C(C)(C)C5CC[C@@]4(C)[C@]2(C)CC3)cc1 (stereo partly drawn) [Analogue 10b]",
    "IC50 (µM)": 2.55
  }
]

Task: Suppose we examine the compound C[C@@H]1CC[C@]2(C(=O)Nc3ccccc3)CC[C@]3(C)C(=CCC4[C@@]5(C)CC[C@H](O)C(C)(C)C5CC[C@]43C)C2[C@H]1C (stereo partly drawn) [Analogue 3b] ; what IC50 value has been reported?
Output: 1.69
